Hi there, I'd appreciate the recorded Population Tubulin-Different-Phenotype (%) for every entry that follows.
system: Fibroblast; experiment: Multiplex assay against human fibroblast; assay type: toxicity, cell-based; settings: 24 h, 1 µM, compound concentration 1 uM, replicate 2
In your response, the unit should come after the numeric value.

Please look up its Population Tubulin-Different-Phenotype (%): CC(C)c1noc(N2CCC(COc3ccc(-c4ccc(S(C)(=O)=O)cc4)nc3)CC2)n1 [GSK-1292263]
13%

Entry CC(C)CC(=O)Nc1[nH]nc2c1CN(C(=O)C1CCN(C)CC1)C2(C)C [PHA-793887] has what Population Tubulin-Different-Phenotype (%)?
16%

Please give the measured Population Tubulin-Different-Phenotype (%) for this compound: COc1ccccc1CN[C@H]1C2CCN(CC2)[C@H]1C(c1ccccc1)c1ccccc1 [CP-96345]
17%

Entry C[C@]12CC[C@@H]3c4ccc(O)cc4CC[C@H]3[C@@H]1CC[C@@H]2O [ESTRADIOL] has what Population Tubulin-Different-Phenotype (%)?
14%

Which Population Tubulin-Different-Phenotype (%) reading was recorded for the compound C=CC(=O)Nc1cccc(Oc2nc(Nc3ccc(N4CCN(C)CC4)cc3OC)ncc2Cl)c1 ?
70%

So what's the measured Population Tubulin-Different-Phenotype (%) for this one? CNC(=O)Nc1ccc2c(c1)[C@@]1(CC2)OC(=O)N(CC(=O)N(Cc2ccc(F)cc2)[C@@H](C)C(F)(F)F)C1=O [A-486]
66%

Given the entry CC(C)NC(=O)N1CC[C@H](NC2=Nc3cc(F)ccc3N(CC(F)F)c3ccc(Cl)cc32)C1 , report its measured Population Tubulin-Different-Phenotype (%).
9%

Give its Population Tubulin-Different-Phenotype (%) value. Item: CN1CCN(Cc2ccc(Nc3ncc(Cl)c(Nc4ccccc4S(=O)(=O)N(C)C)n3)cc2)CC1 [DUBERMATINIB]
14%

So what does the record say about Population Tubulin-Different-Phenotype (%) for CCc1nn(CCCN2CCN(c3cccc(Cl)c3)CC2)c(=O)n1CCOc1ccccc1.Cl [NEFAZODONE HYDROCHLORIDE] ?
33%

Name the recorded Population Tubulin-Different-Phenotype (%) for Cc1c[nH]c2nccc(Oc3c(F)cc(Nc4cc(Cl)nc(N)n4)cc3F)c12 [BAY-549] .
18%

Which Population Tubulin-Different-Phenotype (%) value belongs to COc1cc(Nc2nccc(-c3cnn4nc(OC)ccc34)n2)cc(C(F)(F)F)c1 ?
19%

Bench note: what Population Tubulin-Different-Phenotype (%) did CNC(=O)Nc1ccc(-c2nc(N3CC4CCC(C3)O4)c3cnn(C4CCC5(CC4)OCCO5)c3n2)cc1 show?
23%

What value of measured Population Tubulin-Different-Phenotype (%) is listed for C=CC(=O)Nc1ccc2[nH]c(=O)n(C3CCN(Cc4ccc(-c5nc6cc[nH]c(=O)c6cc5-c5ccccc5)cc4)CC3)c2c1 [Borussertib] ?
10%

Value lookup for Population Tubulin-Different-Phenotype (%); key = O=C(c1cc2c(cc1F)OC(c1ccc(F)cc1)(c1ccc(Cl)cc1Cl)O2)N1CCOCC1 (configuration not stated)
21%

What measured Population Tubulin-Different-Phenotype (%) goes with CC(C)OC(=O)N1CCC(Oc2ncnc3c2cnn3-c2ccc(S(C)(=O)=O)cc2F)CC1 ?
9%

Tell me the measured Population Tubulin-Different-Phenotype (%) of CC1=C(C(=O)Nc2cc3cn[nH]c3cc2F)C(c2ccc(C(F)(F)F)cc2)CC(=O)N1 (configuration not stated) , please.
16%

Consider the compound C=CC(=O)Nc1cccc(Sc2nc(Nc3ccc(N4CCN(C)CC4)cc3)ncc2Cl)c1 and give its measured Population Tubulin-Different-Phenotype (%).
50%
